biological target: T1, PSMA Fab; assay: clonal phage ELISA on biotinylated PSMA Fab captured on neutravidin, anti-M13 HRP detection, blocking buffer alone
T1 construct: In the panning ELISA the PSMA Fab was biotinylated and captured on neutravidin coated plates; also called Anti-PSMA Fab; 006 PSMA Fab
In this section we review reported Phage binding ELISA signal, Anti-PSMA Fab values for a set of binders.

Examples from the recorded data:
VERACVPAWMCTGF [Phage-3309]	1.87
LLEMCKPHWMCVGF [Phage-3314]	1.86
IEKLCKPQWMCEGF [Phage-3310]	1.87
DLRWCIPEWMCIGI [Phage-3312]	1.86
VEIACKPQWMCLGF [Phage-3315]	1.86
NWKVCEPTWMCEGF [Phage-3308]	1.87

Query :: Need Phage binding ELISA signal, Anti-PSMA Fab of LQVMCVPRWMCEGF [Phage-3319] , thanks.
Result :: 1.86

Query :: Need Phage binding ELISA signal, Anti-PSMA Fab of AEHVCRPAWMCTVF [Phage-3313] , thanks.
Result :: 1.86
